The values you see were collected from patent US20210207126A1.

# target-or-system: T1, human CD137 displayed on yeast cells (human, UniProt Q07011 24-186, limits assumed)
# T1 construct: Yeast cells displaying human CD137 on their surface; also called human CD137 on the cell surface
# measurement-protocol: flow cytometry on yeast cells displaying human CD137, PE anti-human Fc
test-readout: masking efficiency (against parental TY21242)
Quick note: unit goes after the number.

binder | assay-result
TY22599 (antibody, V domains shown, Full IgG4 from mammalian cells; peptide fused to the N-terminus of the light chain of TY21242) VH: EVQLVESGGGLVQPGGSLRLSCAASGFSLSTGGVGVGWIRQAPGKGLEWLALIDWADDKYYSPSLKSRLTISRDNSKNTLYLQLNSLRAEDTAVYYCARGGSDTVIGDWFAYWGQGTLVTVSS VL: EVGSYTDNYDYCPRLRRKCYHSGRSAGGGGSPLGLAGSGGSDIQLTQSPSSLSASVGDRVTITCRASQSIGSYLAWYQQKPGKAPKLLIYDASNLETGVPSRFSGSGSGTDFTLTISSLQPEDFATYYCQQGYYLWTFGQGTKVEIK | 348 fold

The record that follows has no masking efficiency (against parental TY21242) shown yet.
Documented masking efficiency (against parental TY21242) of TY22591 (antibody, V domains shown, Full IgG4 from mammalian cells; peptide fused to the N-terminus of the light chain of TY21242) VH: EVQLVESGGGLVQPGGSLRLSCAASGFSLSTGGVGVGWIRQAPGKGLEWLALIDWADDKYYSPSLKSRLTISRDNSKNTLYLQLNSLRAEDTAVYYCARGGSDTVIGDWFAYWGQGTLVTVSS VL: EVGSYSSTHAHCHHSPANCISSGRSAGGGGSPLGLAGSGGSDIQLTQSPSSLSASVGDRVTITCRASQSIGSYLAWYQQKPGKAPKLLIYDASNLETGVPSRFSGSGSGTDFTLTISSLQPEDFATYYCQQGYYLWTFGQGTKVEIK : 38.3 fold
